This collection of values is drawn from BindingDB's records for doi:10.1016/s0960-894x(01)00701-6.

Test: Ability to inhibit human tissue plasminogen activator stimulator
pKi: −log10 of the molar value.
Recorded metric: pKi

Compound: Cc1ccc(N=C(N)N)nc1 [N-(5-Methyl-pyridin-2-yl)-guanidine]
Recorded metric: pKi
Recorded number: 3.61
